Source listed as patent US9284333B2.

For each entry below, report its IC50 value.
STUDY SYSTEM: Human TASK-1 channels (Homo sapiens (Human))
TEST NAME: Determination of the activity on the TASK-1 channel in Xenopus oocytes (two-microelectrode voltage clamp)
TEST CONDITIONS: human TASK-1 expressed in Xenopus oocytes, room temperature; read-out: IC50 value for TASK-1 inhibition
Experimental: Determination of the activity on the TASK-1 channel in Xenopus oocytes Human TASK-1 channels were expressed in Xenopus oocytes. For this purpose, oocytes were isolated from Xenopus laevis and defoliculated. […] After two days of TASK-1 protein expression, TASK-1 currents were measured by two-microelectrode voltage clamp. […] Oocytes were clamped to −90 mV and TASK-1 mediated currents were measured during 500 ms voltage pulses to 40 mV. […]
// note: answer is a bare numeric in nM

[in] // IC50 lookup, key: CC[C@@H](NC(=O)c1cc(C(=O)NC(C)c2nnn(CC)n2)n2c1COCC2)c1ccccc1 (stereo partly shown) [16rq]
[out] 750

[in] // IC50 lookup, key: CC[C@@H](NC(=O)c1cc(C(=O)N[C@H](CC)c2ccccc2)n2c1COCC2)c1ccc(OC)nc1 [16jo]
[out] 250

[in] // IC50 lookup, key: CC[C@@H](NC(=O)c1cc(C(=O)N2CCC[C@@H]2C)n2c1COCC2)c1ccc(C#N)cc1F [16ay]
[out] 910

[in] // IC50 lookup, key: CC[C@@H](NC(=O)c1cc(C(=O)N2CC[C@H](F)C2)n2c1CCCC2)c1ccccc1 [16mk]
[out] 550

[in] // IC50 lookup, key: CC[C@@H](NC(=O)c1cc(C(=O)Nc2c(C)noc2C)c2n1CCOC2)c1ccccc1 [16jk]
[out] 620

[in] // IC50 lookup, key: CC[C@@H](NC(=O)c1cc(C(=O)N[C@H](CC)c2cccc(OC)n2)n2c1COCC2)c1ccc(C(F)(F)F)nc1 [16pb]
[out] 520

[in] // IC50 lookup, key: CC[C@@H](NC(=O)c1cc(C(=O)N[C@H](CC)c2ccc(C#N)nc2)n2c1COCC2)c1ccccc1 [16ib]
[out] 1000

[in] // IC50 lookup, key: CC[C@@H](NC(=O)c1cc(C(=O)NC(C)c2ncccn2)n2c1COCC2)c1ccccc1Cl (stereo partly shown) [16nr]
[out] 310

[in] // IC50 lookup, key: CC[C@@H](NC(=O)c1cc(C(=O)N2CCC[C@@H]2c2cnccn2)c2n1CCOC2)c1ccc(F)cc1F [16pj]
[out] 1100

[in] // IC50 lookup, key: CC[C@@H](NC(=O)c1cc(C(=O)NCc2nc3ccccc3o2)c2n1CCOC2)c1ccccc1 [16js]
[out] 540

[in] // IC50 lookup, key: CC[C@@H](NC(=O)c1cc(C(=O)N[C@H](CO)C(C)C)n2c1COCC2)c1ccccc1 [16iz]
[out] 1900

[in] // IC50 lookup, key: CC[C@@H](NC(=O)c1cc(C(=O)NCc2cncc(F)c2)n2c1COCC2)c1ccccc1 [16gu]
[out] 640

[in] // IC50 lookup, key: CC[C@@H](NC(=O)c1cc(C(=O)N2CCC[C@H]2C)c2n1CCOC2)c1ccccc1 [16kj]
[out] 270

[in] // IC50 lookup, key: CC[C@@H](NC(=O)c1cc(C(=O)N2CCN(C)CC2c2ccccc2)n2c1COCC2)c1ccccc1 (stereo partly shown) [16em]
[out] 600

[in] // IC50 lookup, key: CC[C@H](NC(=O)c1cc(C(=O)N[C@H](CC)c2ccccc2)c2n1CCOC2)c1ccc(OC)nc1 [16hp]
[out] 560

[in] // IC50 lookup, key: CC[C@@H](NC(=O)c1cc(C(=O)NCc2ncn[nH]2)n2c1COCC2)c1ccccc1 [16ii]
[out] 650

---

STUDY SYSTEM: UniProt O14649
TEST NAME: Determination of the activity on the TASK-1 channel in Xenopus oocytes (two-microelectrode voltage clamp)
TEST CONDITIONS: human TASK-1 expressed in Xenopus oocytes, room temperature; read-out: IC50 value for TASK-1 inhibition
METRIC NAME: IC50 (nM)
// note: answer is a bare numeric in nM

[in] // IC50 lookup, key: CC[C@@H](NC(=O)c1cc(C(=O)Nc2cc(C(F)(F)F)ccc2Cl)c2n1CCOC2)c1ccccc1 [16jx]
[out] 220

[in] // IC50 lookup, key: CC[C@@H](NC(=O)c1cc(C(=O)N[C@H](C)C(C)(C)C)n2c1COCC2)c1ccccc1 [16hr]
[out] 190

[in] // IC50 lookup, key: CC[C@@H](NC(=O)c1cc(C(=O)N2CCC[C@@H]2C)n2c1COCC2)c1cccc(O)c1 [16ab]
[out] 2600

[in] // IC50 lookup, key: CC[C@@H](NC(=O)c1cc(C(=O)N2CC[C@H](Oc3ccc(F)cc3)C2)n2c1COCC2)c1ccccc1 [16fu]
[out] 240

---

For each entry below, report its IC50 value.
STUDY SYSTEM: Human TASK-1 channels (Homo sapiens (Human), UniProt O14649)
Sequence (O14649 whole entry): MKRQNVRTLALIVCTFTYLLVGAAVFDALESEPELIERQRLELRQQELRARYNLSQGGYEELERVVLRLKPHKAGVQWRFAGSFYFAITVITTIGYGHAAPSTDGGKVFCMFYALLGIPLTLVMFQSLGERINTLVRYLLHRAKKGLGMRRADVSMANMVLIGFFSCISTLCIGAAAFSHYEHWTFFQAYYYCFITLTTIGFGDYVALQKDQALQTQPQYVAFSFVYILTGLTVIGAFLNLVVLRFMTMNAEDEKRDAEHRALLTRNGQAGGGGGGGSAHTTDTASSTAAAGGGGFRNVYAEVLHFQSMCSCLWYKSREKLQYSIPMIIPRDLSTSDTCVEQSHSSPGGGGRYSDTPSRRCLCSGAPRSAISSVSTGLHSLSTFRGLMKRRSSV
TEST NAME: Determination of the activity on the TASK-1 channel in Xenopus oocytes (two-microelectrode voltage clamp)
TEST CONDITIONS: human TASK-1 expressed in Xenopus oocytes, room temperature; read-out: IC50 value for TASK-1 inhibition
// note: answer is a bare numeric in nM

[in] // IC50 lookup, key: CC[C@@H](NC(=O)c1cc(C(=O)N2CCC[C@@H]2C)n2c1COCC2)c1ccc(C#N)cc1 [16ak]
[out] 1300

[in] // IC50 lookup, key: CC[C@@H](NC(=O)c1cc(C(=O)N2CCC[C@@H]2C(C)OC)n2c1COCC2)c1ccccc1 (some centres unmarked) [16ez]
[out] 500

[in] // IC50 lookup, key: CC[C@@H](NC(=O)c1cc(C(=O)N2CCC[C@@H]2CNC(C)=O)n2c1COCC2)c1ccccc1 [16fh]
[out] 5200

[in] // IC50 lookup, key: CC[C@@H](NC(=O)c1cc(C(=O)N[C@H](CC)c2ccc(OC)nc2)n2c1COCC2)c1ccccc1 [16j]
[out] 200

[in] // IC50 lookup, key: CC[C@@H](NC(=O)c1cc(C(=O)N2CCCC2C2CC2)n2c1COCC2)c1ccccc1 (some centres unmarked) [16gb]
[out] 450

[in] // IC50 lookup, key: CC[C@@H](NC(=O)c1cc(C(=O)NCc2nccs2)c2n1CCCC2)c1ccccc1 [16md]
[out] 80

[in] // IC50 lookup, key: CC[C@@H](NC(=O)c1cc(C(=O)N2CC3CC3C2)n2c1COCC2)c1ccccc1 (some centres unmarked) [16fe]
[out] 150

[in] // IC50 lookup, key: CC[C@@H](NC(=O)c1cc(C(=O)N2CCC[C@@H]2C(O)C2CC2)n2c1COCC2)c1ccccc1 (some centres unmarked) [16et]
[out] 1300

---

For each entry below, report its pIC50 value.
STUDY SYSTEM: Human TASK-1 channels (Homo sapiens (Human), UniProt O14649)
TEST NAME: Determination of the activity on the TASK-1 channel in Xenopus oocytes (two-microelectrode voltage clamp)
TEST CONDITIONS: human TASK-1 expressed in Xenopus oocytes, room temperature; read-out: IC50 value for TASK-1 inhibition
Scale explanation: pIC50 corresponds to minus log10 of a concentration expressed in moles per litre.

[in] // pIC50 lookup, key: CC[C@@H](NC(=O)c1cc(C(=O)N[C@H](CC)c2ccc(C(F)(F)F)nc2)n2c1COCC2)c1ccccc1 [16id]
[out] 6.28

[in] // pIC50 lookup, key: CC[C@@H](NC(=O)c1cc(C(=O)N[C@H](C)c2ccc(OC)cc2)n2c1CCCC2)c1ccccc1 [16mt]
[out] 6.49

[in] // pIC50 lookup, key: O=C(NC(c1ccc(F)cc1)C(F)(F)F)c1cc(C(=O)N2CCCC2)n2c1COCC2 (centres unmarked) [16df]
[out] 5.72

[in] // pIC50 lookup, key: CC[C@@H](NC(=O)c1cc(C(=O)N2CCC[C@@H]2C)n2c1COCC2)c1ccc(OC(F)(F)F)cc1 [16aw]
[out] 6.55

[in] // pIC50 lookup, key: CC[C@@H](NC(=O)c1cc(C(=O)NCc2cc(OC)cc(OC)c2)n2c1COCC2)c1ccccc1 [16gz]
[out] 5.66

[in] // pIC50 lookup, key: CC[C@@H](NC(=O)c1cc(C(=O)N2CCC[C@H]2C)n2c1COCC2)c1ccc(C(F)(F)F)nc1 [16ny]
[out] 5.55

[in] // pIC50 lookup, key: CC(C)[C@@H](NC(=O)c1cc(C(=O)NCc2cnccn2)c2n1CCOC2)c1ccc(F)cc1 [16lo]
[out] 6.38

[in] // pIC50 lookup, key: CC[C@@H](NC(=O)c1cc(C(=O)NC(C)c2cnccn2)n2c1COCC2)c1ccccc1 (single isomer, unassigned) [16ie]
[out] 6.59
